Where do the numbers come from? From PubChem BioAssay (NCI).

System: UACC-257 melanoma
Measurement Notes: NCI tumour cell line growth inhibition, 48 h
Measure: TGI (µM)

Compound	Comparative Sign	Numeric Readout
O=C(N/N=C/c1ccccc1O)c1ccccc1Nc1ccccc1C(=O)N/N=C/c1ccccc1O	>	100
Clc1ccc2nc(-c3ccccc3)nc(Cl)c2c1	>	100
C/C(=N\N=C(\[Se])N(C)C)c1ccccn1	=	0.162
C[C@]12CC[C@H]3[C@@H](C[C@@H]4SC(Nc5ccccc5)=N[C@@]45CC(O)CC[C@]35C)[C@@H]1CCC2O (some centres not stated)	=	6.68
COC(=O)/C=C1/SC(N2N=C(c3cccs3)CC2c2ccc(F)cc2)=NC1=O (configuration not stated)	=	6.83
Nc1nc(N)c2c(n1)NC(c1ccccc1)C1CCc3ccccc3C1=N2 (configuration not stated)	=	15
N#Cc1nc(-c2ccccn2)oc1N	>	100
CN[C@@H](C)[C@H](N)c1ccccc1	>	100
CC(C)(C)c1cc(OCc2nnc3sc(=S)[nH]n23)c(Cl)cc1OCc1nnc2sc(=S)[nH]n12	=	83.8
CO[C@@H]1C[C@H]2N3CC[C@@]2(c2cc4c(cc2C3)OCO4)[C@H]2O[C@@H]12	>	100
Cc1ccc(C2=C(c3ccc(C)cc3)C3(c4ccc(C)cc4)C4C(=O)c5ccccc5C(=O)C4C2(c2ccc(C)cc2)S3=O)cc1 (configuration not stated)	>	100
Cc1cc(C(=O)NC(CCC(=O)O)C(=O)O)sc1CCC1CNc2nc(N)[nH]c(=O)c2C1 (configuration not stated)	>	100
CC1(C)C(=O)/C=C\C(=O)C(C)(C)C(=O)/C=C\C(=O)C(C)(C)C(=O)/C=C\C(=O)C(C)(C)C(=O)/C=C\C1=O	=	63.9
NC(N)=Nc1nc2ccc([N+](=O)[O-])cc2[nH]1	>	100
O=C(CCCl)NNC1=NCCCCN1	>	100
O=[N+]([O-])C(=C1Nc2ccccc2N1)/C(Cl)=C(/Cl)N1CCOCC1	>	100
NC(=O)/C=c1/c2ccccc2n2nc3ccccc3c12	=	41
COCCN1CCN(Cc2ccc(-c3n[nH]c4c3C(=O)c3c(NC(=O)NN5CCOCC5)cccc3-4)cc2)CC1	=	0.281
COc1ccc2c(c1)CC1c3c(ccc(OC)c3O)CC2N1C (configuration not stated)	=	50.6
CN1CCN(Cc2ccc(NC(=O)c3cncc(C#Cc4cncc5nccnc45)c3)cc2C(F)(F)F)CC1	=	6.27
Nc1nc2ccc(OCC(O)CN3CCCCC3)cc2[n+]([O-])n1 (configuration not stated)	>	100
c1cncc(O[Si](Oc2cccnc2)(Oc2cccnc2)Oc2cccnc2)c1	>	100

###

Reported values of TGI for individual entries
System: MDA-MB-231 breast
Measurement Notes: NCI tumour cell line growth inhibition, 48 h
Where a SMILES comes first, the peptide text is derived from it. [ ]: non-standard residue; d: D form. The star is where a group is joined. ξ: configuration not given here. ξF = NC(Cc1ccccc1)C(=O)O; Cbz = O=C(OCc1ccccc1)*; Aib = CC(C)(N)C(=O)O

Molecule	TGI
O=c1c2cc(Cl)ccc2[nH]c2cc(O)cc(O)c12	> 10 µM
O=[N+]([O-])/C(C(Cl)=C(Cl)Cl)=C(\Nc1ccccc1)n1nnc2ccccc21	> 100 µM
C[n+]1c(-c2ccc(/C=N/NC(=O)c3ccc(C(=O)N/N=C/c4ccc(-c5cn6ccccc6[n+]5C)cc4)cc3)cc2)cn2ccccc21	242 µM
Fc1cccc(Cl)c1C1SCc2nc3cc4ccccc4cc3n21 (centres undefined)	> 100 µM
N#Cc1c(N)nc(N)nc1N[C@H](c1nc2c(F)ccc(Cl)c2c(=O)n1-c1cccnc1)C1CC1	36.3 µM
CN(C)c1ccc(-c2ccc(N(C)C)c3n[se]nc23)c2n[se]nc12	> 100 µM
CC(C)CC(Nc1c(O)ccc2ccccc12)C(=O)O (centres undefined)	> 100 µM
O=c1c(Br)cc2c(-c3ccccc3)c3cc(Br)c(O)c(Br)c3oc-2c1Br	> 100 µM
COC(=O)C(C)(C)NC(=O)C(Cc1ccccc1)NC(=O)C(C)(C)NC(=O)OCc1ccccc1 (centres undefined) (Cbz-[Aib]-[ξF]-[Aib]-OMe)	> 100 µM
